Experiment: Micellar liquid chromatography (MLC), ODS-2 column, Brij 35 effluent: chromatographic lipophilicity
Assay type: physicochemical
Test Context: 0.125 M Brij 35, 7% isopropanol, pH 7.4, ODS-2 column, 25 °C
Excerpt: There are several theories that describe the effect of the concentration of the surfactant in the effluent on the retention of the solute in MLC [23]. […] The KAM and km parameters can be evaluated from the slope and intercept of the experimental 1/k vs. [M] relationships. Equation (2) describes a linear dependence between decreasing retention and increasing micelle concentration. […] The micellar retention parameter, log km, is considered analogous to the log kw parameter evaluated in RPLC. […]
Measure: k (MLC retention factor)
Returns: the value as a bare number; no unit string appended.

Just so you know, measured k (MLC retention factor) for CCOC(=O)c1nnc2n(c1=O)CCN2c1cccc(Cl)c1 [Compound 17] came out at 8.00

Just so you know, measured k (MLC retention factor) for CC(C)c1nnc2n(c1=O)CCN2c1ccc(Cl)cc1 [Compound 5] came out at 26.18

Just so you know, measured k (MLC retention factor) for Cc1ccc(N2CCn3c2nnc(C(C)C)c3=O)cc1 [Compound 2] came out at 18.25

Just so you know, measured k (MLC retention factor) for CC(C)c1nnc2n(c1=O)CCN2c1ccc(Cl)c(Cl)c1 [Compound 6] came out at 34.01

---

Experiment: Micellar liquid chromatography (MLC), ODS-2 column, Brij 35 effluent: chromatographic lipophilicity
Assay type: physicochemical
Test Context: 0.15 M Brij 35, 7% isopropanol, pH 7.4, ODS-2 column, 25 °C
Measure: k (MLC retention factor)
Returns: the value as a bare number; no unit string appended.

Study these solved cases before continuing.
CC(C)c1nnc2n(c1=O)CCN2c1cccc(Cl)c1: 22.52
O=c1c(C(F)(F)F)nnc2n1CCN2c1ccc(Cl)c(Cl)c1: 28.56
O=c1c(C(F)(F)F)nnc2n1CCN2c1ccccc1Cl: 7.66
CC(C)c1nnc2n(c1=O)CCN2c1ccccc1Cl: 7.20
CCOC(=O)c1nnc2n(c1=O)CCN2c1ccc(Cl)c(Cl)c1: 14.81

Just so you know, measured k (MLC retention factor) for `CCOC(=O)c1nnc2n(c1=O)CCN2c1ccc(C)cc1` came out at 3.75

The reported measurements were obtained from paper PMC8072580.
